Tested on: ATP;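 note: ATP exposure 15 min at 22 °C before imaging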
Assay: switch fluorescence ratio, 500 uM ATP over buffer (Cy3 cluster intensity, sum of 5 cycles each) (fold (ratio)); higher = stronger signal-on switching upon ATP binding; sequences stand for … in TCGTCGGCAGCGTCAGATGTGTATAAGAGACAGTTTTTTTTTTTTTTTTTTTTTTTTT…TC
Conditions: aptamer strand: ATP DNA aptamer (quencher-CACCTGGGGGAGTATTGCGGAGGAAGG + anchor), 100 nM annealed; ATP concentration: 500 uM
property: switch fluorescence ratio

>  <ordered.residues>
CAATAGGATG

>  <switch fluorescence ratio>
1.01

$$$$
>  <ordered.residues>
CGGGTCGTGG

>  <switch fluorescence ratio>
0.996

$$$$

Entry ATTGGGAAGG has what switch fluorescence ratio?
0.965

Entry TCCAGAAAGG has what switch fluorescence ratio?
1.01

Entry TAGTTGAATT has what switch fluorescence ratio?
0.998

Entry TGGGAAAGCG has what switch fluorescence ratio?
1

Entry TTACTTGAAT has what switch fluorescence ratio?
0.969

Entry AATATGTATG has what switch fluorescence ratio?
0.996

Entry TTTATATTCT has what switch fluorescence ratio?
1.03

Entry TTACAGCTAG has what switch fluorescence ratio?
1.01

Entry TGCGTCCCAA has what switch fluorescence ratio?
1.34

Entry CACTTCCTTT has what switch fluorescence ratio?
1.39

Entry AGGTGTGTAG has what switch fluorescence ratio?
0.99

Entry TGGAAGGTT has what switch fluorescence ratio?
0.987

###

switch fluorescence ratio overview
Test system: ATP;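 note: ATP exposure 15 min at 22 °C before imaging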
Experiment: switch fluorescence ratio, 500 uM ATP over buffer (Cy3 cluster intensity, sum of 5 cycles each) (fold (ratio)); higher = stronger signal-on switching upon ATP binding; sequences stand for … in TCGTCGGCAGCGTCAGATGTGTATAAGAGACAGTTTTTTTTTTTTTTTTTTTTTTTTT…TC
Conditions: aptamer strand: ATP DNA aptamer (quencher-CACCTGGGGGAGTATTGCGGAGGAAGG + anchor), 100 nM annealed; ATP concentration: 500 uM

>  <ordered.residues>
GCAATAGTGG

>  <switch fluorescence ratio>
1.25

$$$$
>  <ordered.residues>
GTGAGATATT

>  <switch fluorescence ratio>
0.989

$$$$
>  <ordered.residues>
ATATTATTTT

>  <switch fluorescence ratio>
0.979

$$$$

Entry CTATACTTGG has what switch fluorescence ratio?
0.987

Entry AAAGACCCTG has what switch fluorescence ratio?
0.988

Entry TTTCGAGAGA has what switch fluorescence ratio?
1.02

Entry CGATTGCTGG has what switch fluorescence ratio?
0.989

Entry TCACAAGTTG has what switch fluorescence ratio?
1.01

###

Test system: ATP;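 note: ATP exposure 15 min at 22 °C before imaging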
Assay: switch fluorescence ratio, 500 uM ATP over buffer (Cy3 cluster intensity, sum of 5 cycles each) (fold (ratio)); higher = stronger signal-on switching upon ATP binding; sequences stand for … in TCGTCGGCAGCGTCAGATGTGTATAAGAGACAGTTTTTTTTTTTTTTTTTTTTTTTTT…TC
Conditions: aptamer strand: ATP DNA aptamer (quencher-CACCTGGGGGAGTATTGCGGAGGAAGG + anchor), 100 nM annealed; ATP concentration: 500 uM
property: switch fluorescence ratio
Reply with the value as a number alone.

Example sequences with recorded switch fluorescence ratio:
>  <ordered.residues>
TAGTGCGTCG

>  <property>
switch fluorescence ratio

>  <assay.value>
0.942

$$$$
>  <ordered.residues>
TTTTGGGTAT

>  <property>
switch fluorescence ratio

>  <assay.value>
0.985

$$$$
>  <ordered.residues>
TGTATATTGG

>  <property>
switch fluorescence ratio

>  <assay.value>
0.995

$$$$
>  <ordered.residues>
TTTGTGTATA

>  <property>
switch fluorescence ratio

>  <assay.value>
0.976

$$$$
>  <ordered.residues>
CCCATTATGC

>  <property>
switch fluorescence ratio

>  <assay.value>
1.13

$$$$

Could you now consider this next sequence?
Entry GGCAGAGATG has what switch fluorescence ratio?
1.02
